# Test Target: V1a (Homo sapiens)
# Assay Overview: Human vasopression V1a receptor binding assay
# Parameters: host or cells: CHO cells (hV1a cell line), whole adherent cells
# Condition Label: hV1a cell line (CHO), 1 nM 3H-AVP; Table 17; read-out: V1a Binding Affinity (IC50 (nM))
Readout Type: IC50 (nM)

Examples from the recorded data:
O=C(NCc1cccc(Cl)c1)[C@H](CCC(=O)N1CCN(C2CCCCC2)CC1)N1C(=O)[C@@H](N2C(=O)OC[C@@H]2c2ccccc2)[C@H]1/C=C/c1ccccc1 [Example 187]    1
O=C(NCc1cc(C(F)(F)F)ccc1F)[C@H](CCC(=O)N1CCN(C2CCCCC2)CC1)N1C(=O)[C@@H](N2C(=O)OC[C@@H]2c2ccccc2)[C@H]1/C=C/c1ccccc1 [Example 177]    0.67
CN(Cc1cccc(Cl)c1)C(=O)[C@H](CCC(=O)N1CCN(C2CCCCC2)CC1)N1C(=O)[C@@H](N2C(=O)OC[C@@H]2c2ccccc2)[C@H]1/C=C/c1ccccc1 [Example 221C]    3
O=C(NC1(c2ccccc2)CCCC1)[C@H](CCC(=O)N1CCN(C2CCCCC2)CC1)N1C(=O)[C@@H](N2C(=O)OC[C@@H]2c2ccccc2)[C@H]1/C=C/c1ccccc1 [Example 217]    3.17
O=C(NCc1cccc([N+](=O)[O-])c1)[C@H](CCC(=O)N1CCN(C2CCCCC2)CC1)N1C(=O)[C@@H](N2C(=O)OC[C@@H]2c2ccccc2)[C@H]1/C=C/c1ccccc1 [Example 189]    1.7

a: O=C(NCc1cccc(C(F)(F)F)c1)[C@@H](CC(=O)N1CCC(CN2CCCCC2)CC1)N1C(=O)[C@@H](N2C(=O)OC[C@@H]2c2ccccc2)[C@H]1/C=C/c1ccccc1 [Example 134G]
b: O=C(NC1(c2ccccc2F)CCCC1)[C@H](CCC(=O)N1CCN(C2CCCCC2)CC1)N1C(=O)[C@@H](N2C(=O)OC[C@@H]2c2ccccc2)[C@H]1/C=C/c1ccccc1 [Example 221H]
Task: // pick larger IC50 from pair: a vs b Write down the label attached to your selection.
Result: a

---

# Test Target: UniProt P37288
# Assay Overview: Human vasopression V1a receptor binding assay
# Condition Label: hV1a cell line (CHO); Table 18
Readout Type: Ki (nM)

Past entries and their recorded results:
CCCCN1CCN(C(=O)CC[C@@H](C(=O)NCc2cccc(C(F)(F)F)c2)N2C(=O)[C@@H](N3C(=O)OC[C@@H]3c3ccccc3)[C@H]2/C(Cl)=C/c2ccccc2)CC1 [Example 229]    0.94
COc1ccccc1CNC(=O)[C@H](CCC(=O)N1CCN(C2CCCCC2)CC1)N1C(=O)[C@@H](N2C(=O)OC[C@@H]2c2ccccc2)[C@H]1/C=C/c1ccccc1 [Example 220]    3.26
CC(C)(NC(=O)[C@H](CCC(=O)N1CCN(C2CCCCC2)CC1)N1C(=O)[C@@H](N2C(=O)OC[C@@H]2c2ccccc2)[C@H]1/C=C/c1ccccc1)c1ccccc1 [Example 204]    3.7
O=C(NCc1ccccc1)[C@H](CCC(=O)N1CCN(C2CCCCC2)CC1)N1C(=O)[C@@H](N2C(=O)OC[C@@H]2c2ccccc2)[C@H]1/C=C/c1ccccc1 [Example 191]    1.79
CN(Cc1cccc(Cl)c1)C(=O)[C@H](CCC(=O)N1CCN(C2CCCCC2)CC1)N1C(=O)[C@@H](N2C(=O)OC[C@@H]2c2ccccc2)[C@H]1/C=C/c1ccccc1 [Example 221C]    1.84

a: Cc1cccc(CN(C)C(=O)[C@H](CCC(=O)N2CCN(C3CCCCC3)CC2)N2C(=O)[C@@H](N3C(=O)OC[C@@H]3c3ccccc3)[C@H]2/C=C/c2ccccc2)c1 [Example 221A]
b: CC(C)(NC(=O)[C@@H](CC(=O)N1CCC(N2CCCCC2)CC1)N1C(=O)[C@@H](N2C(=O)OC[C@@H]2c2ccccc2)[C@H]1/C=C/c1ccccc1)c1ccccc1 [Example 134J]
c: O=C(NC(CCO)c1ccccc1)[C@H](CCC(=O)N1CCN(C2CCCCC2)CC1)N1C(=O)[C@@H](N2C(=O)OC[C@@H]2c2ccccc2)[C@H]1/C=C/c1ccccc1 (stereo partly shown) [Example 221Q]
d: CC(C)N1CCN(C(=O)CCC(C(=O)NCc2cccc(C(F)(F)F)c2)N2C(=O)C(N3C(=O)OCC3c3ccccc3)C2C=Cc2ccccc2)CC1 (single isomer, unassigned) [Example 104]
e: O=C(NCc1ccncc1)[C@H](CCC(=O)N1CCN(C2CCCCC2)CC1)N1C(=O)[C@@H](N2C(=O)OC[C@@H]2c2ccccc2)[C@H]1/C=C/c1ccccc1 [Example 210]
Task: Hey, quick one: sort these by Ki, largest value first please. List each label, following the requested order.
Result: e, c, b, a, d
(e: 18.1 nM, c: 11.1 nM, b: 3.25 nM, a: 1.66 nM, d: 1.13 nM)

---

# Test Target: V1a (Homo sapiens, UniProt P37288)
# Sequence (P37288 whole entry): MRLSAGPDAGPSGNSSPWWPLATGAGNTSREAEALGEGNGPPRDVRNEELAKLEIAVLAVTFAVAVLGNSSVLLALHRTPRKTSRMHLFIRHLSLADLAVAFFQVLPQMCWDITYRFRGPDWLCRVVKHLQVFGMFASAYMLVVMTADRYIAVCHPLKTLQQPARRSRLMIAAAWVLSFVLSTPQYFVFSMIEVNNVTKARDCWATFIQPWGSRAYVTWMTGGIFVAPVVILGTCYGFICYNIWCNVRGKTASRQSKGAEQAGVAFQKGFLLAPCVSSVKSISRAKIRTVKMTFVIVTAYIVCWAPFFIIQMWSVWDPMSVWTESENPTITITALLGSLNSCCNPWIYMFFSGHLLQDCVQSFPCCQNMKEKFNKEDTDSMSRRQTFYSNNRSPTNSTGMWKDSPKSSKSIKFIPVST
# Assay Overview: Human vasopression V1a receptor binding assay
# Design: host or cells: CHO cells (hV1a cell line), whole adherent cells
# Condition Label: hV1a cell line (CHO), 1 nM 3H-AVP; Table 17; read-out: V1a Binding Affinity (IC50 (nM))
Readout Type: IC50 (nM)

C[C@H](NC(=O)[C@H](CCC(=O)N1CCN(C2CCCCC2)CC1)N1C(=O)[C@@H](N2C(=O)OC[C@@H]2c2ccccc2)[C@H]1/C=C/c1ccccc1)c1ccccc1    1.58

A: CCCCN1CCN(C(=O)CC[C@@H](C(=O)NCc2cccc(C(F)(F)F)c2)N2C(=O)C(N3C(=O)OC[C@@H]3c3ccccc3)C2/C(Br)=C/c2ccccc2)CC1 (stereo partly drawn) [Example 230L]
B: O=C(NC1(c2ccccc2)CC1)[C@H](CCC(=O)N1CCN(C2CCCCC2)CC1)N1C(=O)[C@@H](N2C(=O)OC[C@@H]2c2ccccc2)[C@H]1/C=C/c1ccccc1
Task: // compare measured IC50 between A and B ; output the lower one Which one? Tell me its label.
Result: B

---

# Test Target: V1a (Homo sapiens, UniProt P37288)
# Assay Overview: Human vasopression V1a receptor binding assay
# Parameters: host or cells: CHO cells (hV1a cell line), whole adherent cells
# Condition Label: hV1a cell line (CHO), 1 nM 3H-AVP; Table 17; read-out: V1a Binding Affinity (IC50 (nM))
Readout Type: IC50 (nM)

O=C(N[C@H]1CCc2ccccc21)[C@H](CCC(=O)N1CCN(C2CCCCC2)CC1)N1C(=O)[C@@H](N2C(=O)OC[C@@H]2c2ccccc2)[C@H]1/C=C/c1ccccc1 [Example 221R]    5.13

P: O=C(C(COCc1ccccc1)N1C(=O)[C@@H](N2C(=O)OC[C@@H]2c2ccccc2)[C@H]1/C=C/c1ccccc1)N1CCN(C2CCCCC2)CC1 (mixture of isomers) [Example 232D]
Q: CCN1CCN(C(=O)CC[C@@H](C(=O)NCc2cccc(C(F)(F)F)c2)N2C(=O)[C@@H](N3C(=O)OC[C@@H]3c3ccccc3)[C@H]2/C(Cl)=C/c2ccccc2)CC1 [Example 228]
R: O=C(NCc1ccccc1)[C@H](CCC(=O)N1CCN(C2CCCCC2)CC1)N1C(=O)[C@@H](N2C(=O)OC[C@@H]2c2ccccc2)[C@H]1/C=C/c1ccccc1 [Example 191]
S: O=C(CC[C@@H](C(=O)N1CCc2ccccc2C1)N1C(=O)[C@@H](N2C(=O)OC[C@@H]2c2ccccc2)[C@H]1/C=C/c1ccccc1)N1CCN(C2CCCCC2)CC1 [Example 221O]
Task: Sort these compounds on IC50 so the largest reading comes first. Output spec: a listing of the labels in the requested order.
Result: Q, S, R, P
(Q: 13.6 nM, S: 8.4 nM, R: 2.92 nM, P: 2.04 nM)

---

# Test Target: V1a (Homo sapiens, UniProt P37288)
# Assay Overview: Human vasopression V1a receptor binding assay
# Parameters: host or cells: CHO cells (hV1a cell line), whole adherent cells
# Condition Label: hV1a cell line (CHO), 1 nM 3H-AVP; Table 17; read-out: V1a Binding Affinity (IC50 (nM))
Readout Type: IC50 (nM)

A: CC(C)(C)OC(=O)N[C@@H]1CCN(C2CCN(C(=O)CC[C@@H](C(=O)NC3(c4ccccc4)CCCC3)N3C(=O)[C@@H](N4C(=O)OC[C@@H]4c4ccccc4)[C@H]3/C=C/c3ccccc3)CC2)C1 [Example 221AX]
B: O=C(C[C@H](C(=O)NCc1cccc(C(F)(F)F)c1)N1C(=O)[C@@H](N2C(=O)OC[C@@H]2c2ccccc2)[C@H]1/C=C/c1ccccc1)NC1CCN(Cc2ccccc2)CC1 [Example 134C]
Task: Exercise: compare A and B ; which one has the greater IC50? Please reply using the label of the selected record.
Result: A
(A: 83 nM, B: 9.1 nM)

I: CN(Cc1cc(Cl)cc(Cl)c1)C(=O)[C@H](CCC(=O)N1CCN(C2CCCCC2)CC1)N1C(=O)[C@@H](N2C(=O)OC[C@@H]2c2ccccc2)[C@H]1/C=C/c1ccccc1 [Example 221E]
II: O=C(NCc1cc(F)cc(F)c1)[C@H](CCC(=O)N1CCN(C2CCCCC2)CC1)N1C(=O)[C@@H](N2C(=O)OC[C@@H]2c2ccccc2)[C@H]1/C=C/c1ccccc1 [Example 185]
Task: Smaller IC50 value, I vs II ? Kindly give the label for the entry you pick.
Result: II

P: O=C(NCc1ccco1)[C@H](CCC(=O)N1CCN(C2CCCCC2)CC1)N1C(=O)[C@@H](N2C(=O)OC[C@@H]2c2ccccc2)[C@H]1/C=C/c1ccccc1 [Example 211]
Q: O=C(NCc1ccccc1C(F)(F)F)[C@H](CCC(=O)N1CCN(C2CCCCC2)CC1)N1C(=O)[C@@H](N2C(=O)OC[C@@H]2c2ccccc2)[C@H]1/C=C/c1ccccc1 [Example 182]
Task: // select label with min value of measured IC50 from [ P , Q ] Please identify the chosen entry by its label.
Result: Q
(Q: 1.52 nM, P: 5.37 nM)

a: Cc1ccccc1C(C)(C)NC(=O)[C@H](CCC(=O)N1CCN(C2CCCCC2)CC1)N1C(=O)[C@@H](N2C(=O)OC[C@@H]2c2ccccc2)[C@H]1/C=C/c1ccccc1 [Example 221]
b: O=C(NC1CCc2ccccc21)[C@H](CCC(=O)N1CCN(C2CCCCC2)CC1)N1C(=O)[C@@H](N2C(=O)OC[C@@H]2c2ccccc2)[C@H]1/C=C/c1ccccc1 (some centres unmarked) [Example 216]
c: CN(Cc1cccc(Cl)c1Cl)C(=O)[C@H](CCC(=O)N1CCN(C2CCCCC2)CC1)N1C(=O)[C@@H](N2C(=O)OC[C@@H]2c2ccccc2)[C@H]1/C=C/c1ccccc1 [Example 221B]
d: O=C(NC(CCO)c1ccccc1)[C@H](CCC(=O)N1CCN(C2CCCCC2)CC1)N1C(=O)[C@@H](N2C(=O)OC[C@@H]2c2ccccc2)[C@H]1/C=C/c1ccccc1 (some centres unmarked) [Example 221Q]
e: O=C(NCc1cccc(Br)c1)[C@H](CCC(=O)N1CCN(C2CCCCC2)CC1)N1C(=O)[C@@H](N2C(=O)OC[C@@H]2c2ccccc2)[C@H]1/C=C/c1ccccc1 [Example 190]
Task: Please order the records by their reported IC50, lowest number first. Return the labels ranked in the requested order, please.
Result: c, e, b, a, d
(c: 0.59 nM, e: 0.88 nM, b: 1.83 nM, a: 5.1 nM, d: 18.1 nM)

1: CCCCN1CCN(C(=O)CC[C@@H](C(=O)NCc2cccc(C(F)(F)F)c2)N2C(=O)[C@@H](N3C(=O)OC[C@@H]3c3ccccc3)[C@H]2/C(Cl)=C/c2ccccc2)CC1 [Example 229]
2: O=C(NCc1cc(Cl)ccc1Cl)[C@H](CCC(=O)N1CCN(C2CCCCC2)CC1)N1C(=O)[C@@H](N2C(=O)OC[C@@H]2c2ccccc2)[C@H]1/C=C/c1ccccc1 [Example 175]
Task: Between 1 and 2 , whose recorded IC50 is greater? Give the label under which the chosen entry appears.
Result: 2
(2: 4.56 nM, 1: 1.53 nM)

P: O=C(NCc1cc(Cl)cc(Cl)c1)[C@H](CCC(=O)N1CCN(C2CCCCC2)CC1)N1C(=O)[C@@H](N2C(=O)OC[C@@H]2c2ccccc2)[C@H]1/C=C/c1ccccc1 [Example 174]
Q: O=C(NC1(c2ccccc2)CCCC1)[C@H](CC(=O)N1CCC(N2CCCCC2)CC1)N1C(=O)[C@@H](N2C(=O)OC[C@@H]2c2ccccc2)[C@H]1/C=C/c1ccccc1 [Example 132D]
Task: # query: argmin of IC50 over P and Q Return value: the label identifying the chosen record.
Result: P
